System: Panonychus ulmi
Test: Insecticidal activity against Panonychus ulmi PSR-TK in plum tree leaf assessed as mortality at adult stage compound treated by spray application measured after 7 to 8 days treatment
Assay type: functional
quantity_name: LC50 (µg/mL)
Numbers only, in µg/mL.

As a guide, the following entries are already answered.
In [3]: df
Out[3]:
                                   compound  recorded_value
0  CCCCCCCCCCCCC1=C(OC(C)=O)C(=O)c2ccccc2C1=O             1.3
1  CCc1nn(C)c(C(=O)NCc2ccc(C(C)(C)C)cc2)c1Cl            11.2
2  Cc1nn(C)c(/C(OC(=O)C(C)(C)C)=C(\C#N)c2ccc(C(C)(C)C)cc2)c1C            7.13

Turning to the following compound.
Please report the recorded LC50 for COc1ccc(-c2ccccc2)cc1NNC(=O)OC(C)C [BIFENAZATE] .
1.3
